Value source: patent US10758534B2

# target.system: F508del (Homo sapiens, UniProt P13569, DEL508-508)
# Construct: expressed in transfected cells
# Sequence (P13569 with tags, fused parts or gaps DEL508-508): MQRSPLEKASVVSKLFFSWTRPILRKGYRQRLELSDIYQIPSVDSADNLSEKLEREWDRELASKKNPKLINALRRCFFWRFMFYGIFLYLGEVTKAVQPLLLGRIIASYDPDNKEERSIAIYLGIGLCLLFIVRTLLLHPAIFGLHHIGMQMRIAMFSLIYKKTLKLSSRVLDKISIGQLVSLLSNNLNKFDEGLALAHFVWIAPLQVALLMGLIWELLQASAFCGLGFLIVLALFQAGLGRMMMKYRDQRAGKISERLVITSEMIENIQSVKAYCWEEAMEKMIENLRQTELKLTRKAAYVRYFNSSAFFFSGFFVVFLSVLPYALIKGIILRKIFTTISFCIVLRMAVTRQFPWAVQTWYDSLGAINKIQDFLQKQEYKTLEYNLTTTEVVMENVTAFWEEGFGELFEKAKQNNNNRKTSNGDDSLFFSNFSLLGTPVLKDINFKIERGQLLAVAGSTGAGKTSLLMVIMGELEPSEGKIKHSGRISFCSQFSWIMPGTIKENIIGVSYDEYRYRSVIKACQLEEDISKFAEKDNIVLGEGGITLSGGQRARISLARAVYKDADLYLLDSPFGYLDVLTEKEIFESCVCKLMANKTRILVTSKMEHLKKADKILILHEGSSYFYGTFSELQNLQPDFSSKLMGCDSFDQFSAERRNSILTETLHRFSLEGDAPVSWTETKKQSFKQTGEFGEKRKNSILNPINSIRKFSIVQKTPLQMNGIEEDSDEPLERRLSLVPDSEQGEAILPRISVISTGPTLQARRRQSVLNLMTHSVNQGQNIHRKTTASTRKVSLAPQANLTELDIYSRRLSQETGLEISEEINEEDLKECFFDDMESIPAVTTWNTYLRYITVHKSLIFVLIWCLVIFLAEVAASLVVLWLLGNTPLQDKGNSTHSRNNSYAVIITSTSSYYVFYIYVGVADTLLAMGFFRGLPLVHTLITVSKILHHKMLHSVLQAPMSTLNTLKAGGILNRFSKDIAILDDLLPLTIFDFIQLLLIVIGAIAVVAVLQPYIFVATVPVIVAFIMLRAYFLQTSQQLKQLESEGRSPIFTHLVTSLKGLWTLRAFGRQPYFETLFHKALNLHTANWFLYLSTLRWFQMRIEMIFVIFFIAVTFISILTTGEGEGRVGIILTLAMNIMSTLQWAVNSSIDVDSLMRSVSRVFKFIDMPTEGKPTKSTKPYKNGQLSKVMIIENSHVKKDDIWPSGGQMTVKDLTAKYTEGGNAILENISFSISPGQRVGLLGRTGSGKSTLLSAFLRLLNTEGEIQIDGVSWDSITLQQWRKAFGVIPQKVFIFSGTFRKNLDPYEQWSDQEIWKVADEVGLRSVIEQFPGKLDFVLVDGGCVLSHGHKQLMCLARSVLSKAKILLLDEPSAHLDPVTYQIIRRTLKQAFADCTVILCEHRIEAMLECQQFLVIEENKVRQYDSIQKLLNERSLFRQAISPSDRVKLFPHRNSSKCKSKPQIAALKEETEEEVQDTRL
# test.name: Protocol 1: membrane potential optical assay (FLIPR III, voltage sensing dye), identification of potentiator compounds
# Type: cell-based
# recorded.conditions: Table 3, compounds of Table 1
quantity.name: EC30

compound	quantity.name	test.result
CC1CN(c2ncccc2C(=O)NS(=O)(=O)c2cccc(Oc3ccccc3C#N)n2)C(C)(C)C1 (stereo not shown)	EC30	+++ (“+++” means <3 uM)
CCC(Oc1nc(-c2cc(F)cc(OCC(C)C)c2)ccc1C(=O)NS(=O)(=O)c1cccc(N)n1)C1CC1(C)C (stereo not shown)	EC30	+++ (“+++” means <3 uM)
CC(C)COc1cc(F)cc(-c2ccc(C(=O)NS(=O)(=O)c3cccc(N)n3)c(N3CCC4(CC4)C3)n2)c1	EC30	+++ (“+++” means <3 uM)
COc1ncc(-c2ccc(C(=O)NS(=O)(=O)c3cc[nH]n3)c(Oc3c(C)cc(C)cc3C)n2)cc1C	EC30	+++ (“+++” means <3 uM)

----------
# target.system: F508del (Homo sapiens, UniProt P13569, DEL508-508)
# Construct: expressed in transfected cells
# test.name: Protocol 1: membrane potential optical assay (FLIPR III, voltage sensing dye), identification of potentiator compounds
# Assay type: cell-based
# recorded.conditions: Table 3, compounds of Table 1

smiles.representation	EC30
Cc1cc(C)c(Oc2nc(C(C)(C)C)ccc2C(=O)NS(=O)(=O)c2cnc(N)s2)c(C)c1	+++ (“+++” means <3 uM)
Cc1cc(C)c(Oc2nc(-c3cc(F)ccc3F)ccc2C(=O)NS(=O)(=O)c2cccc(N)n2)c(C)c1	+++ (“+++” means <3 uM)
CC(C)(C)COc1cccc(-c2ccc(C(=O)NS(=O)(=O)c3cccc(N)n3)c(N3CCCC3(C)C)n2)n1	+++ (“+++” means <3 uM)

----------
# target.system: F508del (Homo sapiens, UniProt P13569, DEL508-508)
# Construct: expressed in transfected cells
# test.name: Protocol 1: membrane potential optical assay (FLIPR III, voltage sensing dye), identification of potentiator compounds
# Type: cell-based
# recorded.conditions: Table 3, compounds of Table 1

compound	EC30
Cc1ccc(-c2ccc(C(=O)NS(=O)(=O)c3cccc(N)n3)c(N3C[C@@H](C)CC3(C)C)n2)cc1F	+++ (“+++” means <3 uM)
Cc1cc(C)c(Oc2nc(C3=CCSCC3)ccc2C(=O)NS(=O)(=O)c2cccc(N)n2)c(C)c1	+++ (“+++” means <3 uM)
CC(C)(C)c1ccc(C(=O)NS(=O)(=O)c2cccc(N)n2)c(N2CCC(Cc3ccccc3)C2(C)C)n1 (stereo not shown)	+++ (“+++” means <3 uM)
Cc1cc(C)c(CN2C(C(=O)NS(=O)(=O)c3cccc(N)n3)c3ccccc3C2(C)C)c(C)c1 (stereo not shown)	+++ (“+++” means <3 uM)

----------
# target.system: F508del (Homo sapiens, UniProt P13569, DEL508-508)
# Construct: expressed in transfected cells
# test.name: Protocol 2: FRET membrane potential optical assay (VIPR), identification of correction compounds
# Assay type: cell-based
# recorded.conditions: F508del CFTR modulator activity; compounds of Table 1; read-out: EC30
Entries annotated with measured EC30

compound	EC30
CC1CN(c2ncccc2C(=O)NS(=O)(=O)c2cccc(Nc3cccc4ccccc34)n2)C(C)(C)C1 (stereo not shown)	< 3 µM
CC1CN(c2ncccc2C(=O)NS(=O)(=O)c2cccc(NCCCCc3ccccc3)n2)C(C)(C)C1 (stereo not shown)	< 3 µM
CC(C)COc1cc(F)cc(-c2ccc(C(=O)NS(=O)(=O)c3cccc(N)n3)c(N3CCC(C)C(C)C3)n2)c1 (single isomer, unassigned)	< 3 µM
CCOc1cc(C)cc(-c2ccc(C(=O)NS(=O)(=O)c3cc[nH]n3)c(N3C[C@@H](C)CC3(C)C)n2)n1	< 3 µM
CCN(CC)c1ccc(Nc2cccc(S(=O)(=O)NC(=O)c3cccnc3N3CC(C)CC3(C)C)n2)cc1 (stereo not shown)	< 3 µM

In: Give EC30 (F508del (Homo sapiens, UniProt P13569, DEL508-508)) of the following compound: `CC(C)COc1cccc(-c2ccc(C(=O)NS(=O)(=O)c3ccc[nH]c3=O)c(N3C[C@@H](C)CC3(C)C)n2)c1`
Out: < 3 µM

In: Can you check `COc1ccc(F)cc1-c1ccc(C(=O)NS(=O)(=O)c2cccnc2N)c(N2C[C@@H](C)CC2(C)C)n1` next?
Out: < 3 µM

----------
# target.system: F508del (Homo sapiens, UniProt P13569, DEL508-508)
# Construct: expressed in transfected cells
# test.name: Protocol 2: FRET membrane potential optical assay (VIPR), identification of correction compounds
# Format: cell-based
# recorded.conditions: F508del CFTR modulator activity; compounds of Table 1; read-out: EC30
# EC30 per entry

Below are worked cases with known answers.
compound	test.result
CC1CN(c2ncccc2C(=O)NS(=O)(=O)c2cccc(OCc3cccc4ccccc34)n2)C(C)(C)C1 (stereo not drawn)	< 3 µM
CC1CN(c2ncccc2C(=O)NS(=O)(=O)c2cccc(N[C@H](C)C(C)(C)C)n2)C(C)(C)C1 (stereo partly drawn)	< 3 µM
C[C@@H]1CN(c2nc(C(C)(C)C)c(C3=CCN(C(=O)NC4CCCCC4)CC3)cc2C(=O)NS(=O)(=O)c2cccc(N)n2)C(C)(C)C1	3 to 10 µM
CCOCCOc1ncc(-c2ccc(C(=O)NS(=O)(=O)c3cccc(N)n3)c(N3C[C@@H](C)CC3(C)C)n2)cc1C	< 3 µM
COC(=O)c1cccc(Nc2cccc(S(=O)(=O)NC(=O)c3cccnc3N3CC(C)CC3(C)C)n2)c1 (stereo not drawn)	< 3 µM

Next up:
In: Consider the compound shown here: `COc1ccccc1-c1ccc(C(=O)NS(=O)(=O)N2CC[C@H](N)C2)c(N2C[C@@H](C)CC2(C)C)n1` What is its recorded EC30?
Out: 3 to 10 µM

----------
# target.system: F508del (Homo sapiens, UniProt P13569, DEL508-508)
# Construct: expressed in transfected cells
# test.name: Protocol 2: FRET membrane potential optical assay (VIPR), identification of correction compounds
# Type: cell-based
# recorded.conditions: F508del CFTR modulator activity; compounds of Table 1; read-out: EC30
// EC30 lookup, one value per entry

Use the examples below as a reference point.
compound	quantity.name	test.result
C[C@@H]1CN(c2nc(-c3cccc(F)c3O)ccc2C(=O)NS(=O)(=O)c2cccnc2N)C(C)(C)C1	EC30	< 3 µM
CC1CN(c2ncc(-c3cccc4[nH]ncc34)cc2C(=O)NS(=O)(=O)c2cccc(N)n2)C(C)(C)C1 (stereo not shown)	EC30	> 10 µM
CC(C)COc1cc(F)cc(-c2ccc(C(=O)NS(=O)(=O)N3C[C@H]4C[C@@H]3CO4)c(N3C[C@@H](C)CC3(C)C)n2)c1	EC30	< 3 µM
C[C@@H]1CN(c2nc(C(C)(C)C)c(C3=CCN(C(=O)CC4CCCCC4)CC3)cc2C(=O)NS(=O)(=O)c2cccc(N)n2)C(C)(C)C1	EC30	< 3 µM
Cc1ccc(-c2ccc(C(=O)NS(=O)(=O)c3ccc[nH]c3=O)c(N3C[C@@H](C)CC3(C)C)n2)c(O)c1	EC30	3 to 10 µM
CC1CN(c2ncccc2C(=O)NS(=O)(=O)c2cccc(OC3C=CCCC3)n2)C(C)(C)C1 (stereo not shown)	EC30	< 3 µM
CC1CN(c2ncccc2C(=O)NS(=O)(=O)c2cccc(Nc3ccc(C(F)(F)F)nc3)n2)C(C)(C)C1 (stereo not shown)	EC30	< 3 µM
CC1CN(c2ncccc2C(=O)NS(=O)(=O)c2cccc(OCc3ccc(C(C)C)cc3)n2)C(C)(C)C1 (stereo not shown)	EC30	< 3 µM

In: Requested field: EC30. Item: CC1CN(c2ncccc2C(=O)NS(=O)(=O)c2cccc(N(C)CC3CC3)n2)C(C)(C)C1 (stereo not shown)
Out: < 3 µM

In: And what about the compound `Cc1cc(-c2ccc(C(=O)NS(=O)(=O)c3cccc(N)n3)c(N3C[C@@H](C)CC3(C)C)n2)cnc1OC(C)C` ?
Out: < 3 µM

In: Cool, now CC(C)COc1cc(F)cc(-c2ccc(C(=O)NS(=O)(=O)c3cccc(N)n3)c(C3CC(C)(C)CC3(C)C)n2)c1 (single isomer, unassigned)
Out: < 3 µM

In: Please answer likewise for CCCOc1cccc(S(=O)(=O)NC(=O)c2cccnc2N2CC(C)CC2(C)C)n1 (stereo not shown)
Out: < 3 µM

In: Record: CC(C)COc1cc(F)cc(-c2ccc(C(=O)NS(=O)(=O)c3cccc(N)n3)c(N3CC(C)CCC3C)n2)c1 (single isomer, unassigned)
Out: < 3 µM

----------
This listing pairs compounds with measured EC30.
# target.system: F508del (Homo sapiens, UniProt P13569, DEL508-508)
# Construct: expressed in transfected cells
# test.name: Protocol 2: FRET membrane potential optical assay (VIPR), identification of correction compounds
# Type: cell-based
# recorded.conditions: F508del CFTR modulator activity; compounds of Table 1; read-out: EC30

compound	EC30
C[C@@H]1CN(c2nc(-c3cccc(NCC(C)(C)C)n3)ccc2C(=O)NS(=O)(=O)c2cccnc2N)C(C)(C)C1 [Compound 2500]	< 3 µM

In: Request the reported EC30 associated with CC1CN(c2ncccc2C(=O)NS(=O)(=O)c2cccc(Nc3cccc4cnccc34)n2)C(C)(C)C1 (centres unmarked) [Compound 2274]
Out: 3 to 10 µM

In: Quick one: C[C@@H]1CN(c2nc(-c3cccc(C(F)(F)F)c3)ccc2C(=O)NS(=O)(=O)N2CC[C@H](N)C2)C(C)(C)C1 [Compound 2220]
Out: 3 to 10 µM

In: How about this compound: COc1ccccc1-c1ccc(C(=O)NS(=O)(=O)c2ccc[nH]c2=O)c(N2C[C@@H](C)CC2(C)C)n1 [Compound 2485]
Out: < 3 µM

In: Also need C[C@@H]1CN(c2nc(-n3ccc(-c4ccccc4)n3)ccc2C(=O)NS(=O)(=O)C2CC2)C(C)(C)C1 [Compound 2674] , thanks.
Out: < 3 µM

In: Next compound: COc1ccc(-c2ccc(C(=O)NS(=O)(=O)c3ccc[nH]c3=O)c(N3C[C@@H](C)CC3(C)C)n2)c(C)c1 [Compound 2469]
Out: 3 to 10 µM

In: Now this one: CC1CN(c2ncccc2C(=O)NS(=O)(=O)c2cccc(OCCc3ccccc3)n2)C(C)(C)C1 (centres unmarked) [Compound 2721]
Out: < 3 µM

In: Also check COc1cc(F)ccc1-c1ccc(C(=O)NS(=O)(=O)c2cccnc2N)c(N2C[C@@H](C)CC2(C)C)n1 [Compound 2482]
Out: < 3 µM

In: Here is the next compound: CC1CN(c2ncccc2C(=O)NS(=O)(=O)c2cccc(Oc3ccc(C#N)cc3)n2)C(C)(C)C1 (centres unmarked) [Compound 2076]
Out: < 3 µM

In: And the next one, CC1CN(c2ncccc2C(=O)NS(=O)(=O)c2cccc(OC3CCC4CCCCC4C3)n2)C(C)(C)C1 (centres unmarked) [Compound 2211] ?
Out: < 3 µM

In: Also, CC(C)COc1cc(F)cc(-c2ccc(C(=O)NS(=O)(=O)N3CC[C@@H](N)C3)c(N3CCCC3(C)Cc3ccccc3)n2)c1 (single isomer, unassigned) [Compound 2325] please.
Out: < 3 µM

In: Same for COCCCN(C)c1cccc(S(=O)(=O)NC(=O)c2cccnc2N2CC(C)CC2(C)C)n1 (centres unmarked) [Compound 2734]
Out: 3 to 10 µM

In: What do you get for COc1ncc(-c2ccc(C(=O)NS(=O)(=O)c3cccnc3N)c(N3C[C@@H](C)CC3(C)C)n2)c(OC)n1 [Compound 2008] ?
Out: 3 to 10 µM

In: Same lookup for COc1cc(F)ccc1-c1ccc(C(=O)NS(=O)(=O)c2ccc[nH]c2=O)c(N2C[C@@H](C)CC2(C)C)n1 [Compound 2356] , please.
Out: < 3 µM
